Measured values drawn from ChEMBL document CHEMBL4400568 for this set.

Test system: A549
method-summary: Cytotoxicity against human A549 cells assessed as reduction in cell viability after 24 hrs by MTT assay
Format: functional, cell-based
condition-info: A549, 24 h
assay-metric: pIC50
Worth noting: pIC50 values are minus log10 of concentrations stated in mol/L.

CCCCCCCCCS(=O)(=O)C12OC1C(=O)c1c(OC)ccc(OC)c1C2=O (configuration not stated) ... 5.12

Now examine the next entry.
## Task Entry under review: CCCS(=O)(=O)C12OC1C(=O)c1c(OC)ccc(OC)c1C2=O (configuration not stated) . Reported pIC50?
## Result 5.59
